FYI, the data here is from PubChem BioAssay.

experiment: osmotic lysis modulators in infected erythrocytes, primary screen, PSAC antagonist project, cell-based, P. falciparum Indochina, OD700, 3 h (AID 1156)
test_context: higher = more signal, called active from +8 up or from −8 down
Would you mind telling me the reported z-score of each entry?
Please reply with the value in numeric form only.

Tell us which z-score value is on record for CCCC[C@@H](O)C1=C(COc2ccccc2)C[C@H]2C(=O)N(C)C(=O)[C@H]2[C@H]1CO
0.241

State its z-score for this compound: COCCOC(=O)N1C(=O)[C@@]2(c3cc(C#CCCO)ccc31)[C@H](c1ccccc1OCCO)N1[C@H](c3ccccc3)[C@H](c3ccccc3)OC(=O)[C@H]1[C@@H]2C(=O)Nc1nc2ccccc2s1
0.621

# return recorded z-score for entry CN1C(=O)C2C=CC(C(O)C#Cc3ccccc3)N(Nc3ccccc3)C2C1=O (stereo not drawn)
0.0989

====

target_system: Fibroblast growth factor 10 (Homo sapiens)
experiment: FGF10 binders on small-molecule microarrays, primary screen, biochemical, small-molecule microarray, 635 nm fluorescence (AID 1102)
test_context: FGF10 binding, fluorescence 635 nm, higher = more signal
Classes based on composite z-score: bucket A (below 0.2), bucket B (0.2 to below 0.9), bucket C (0.9 or more)

Would you mind sorting COc1ccc([Si](C)(C)[C@@H]2[C@@H](CC(=O)N3Cc4ccccc4C[C@H]3CO)O[C@]3(C(=O)N(Cc4cccc(N5C(=O)c6cccc7cccc5c67)c4)c4ccccc43)[C@H]2C)cc1 into the appropriate category?
bucket B

Bin? O=C1NC(=O)C2C1C=CC(C(O)c1c(F)cccc1Cl)N2Nc1ccc(Cl)cc1Cl (stereo not drawn)
bucket A

Which category does the recorded composite z-score put CC(C)[Si](C#CCCCC#N)(O[C@H](c1ccccc1)c1cn([C@H](CO)Cc2ccccc2)nn1)C(C)C in?
bucket B

Lab note: which band did C=CCC(OC(C)=O)[C@@H]1[C@@H](N(Cc2cccc3ccccc23)C(=O)Cc2ccc(F)cc2)c2cc(OCCCO)ccc2N1C(=O)c1ccc2ccccc2n1 (stereo partly drawn) land in?
bucket A

Tag the class for CC(C)C(CO)N1C(=O)[C@@H]2C3C(=O)OCCC/C=C\[C@H]3OC23C=CCN(C(C)(C)C)C(=O)[C@@H]13 (stereo partly drawn)
bucket A

Tag the class for COCCOC(=O)N1C(=O)[C@@]2(c3ccccc31)[C@H](C(=O)N1CCN(c3ncccn3)CC1)[C@H]1C(=O)O[C@H](c3ccccc3)[C@H](c3ccccc3)N1[C@@H]2c1ccc(O)cc1
bucket B

State the band of CC(C)C(=C=CC[C@H](O)c1ccc(OCCO)cc1)C[C@H](O)c1ccccn1
bucket B

Category of COc1ccc(CCNC(=O)[C@@H]2c3ccccc3C(=O)N(Cc3cc(C(F)(F)F)cc(C(F)(F)F)c3)[C@H]2c2ccc(CO)cc2)cc1 , please.
bucket A

Category lookup for the compound O=C1NC(=O)C2C1C=CC(C(O)c1cccc3ccccc13)N2Nc1ccc(Cl)cc1Cl (stereo not drawn)
bucket B

Hey, which category is [N-]=[N+]=Nc1ccccc1[C@H]1OC(c2ccc(OCCCO)cc2)=N[C@@]1(CCS(=O)(=O)c1ccccc1)C(=O)NCCN1CCOCC1 in, do you know?
bucket C

# bin label for COCC1=C2[C@@H](CCc3ccccc3)OB(O)C[C@@H]2[C@@H]2C(=O)C=CC(=O)[C@@H]2C1
bucket B

Dear colleague, I would appreciate it if you could identify the bin for O=C(N1CCCCC1)[C@@]1(CCS(=O)(=O)c2ccccc2)COC(c2ccc(OCCCO)cc2)=N1 and reply at your convenience.
bucket C

Exercise: read the entry COCCOC(=O)N1C(=O)[C@@]2(c3cc(C#CC4(O)CCCCCC4)ccc31)[C@H](c1ccc(O)cc1)N1[C@H](c3ccccc3)[C@H](c3ccccc3)OC(=O)[C@H]1[C@@H]2C(=O)NC[C@H](O)c1ccccc1 and state which class it falls under.
bucket C

Sort COCCOC(=O)N1C(=O)[C@@]2(c3cc(C#Cc4ccc(OC)cc4)ccc31)[C@H](c1ccccc1OCCO)N1[C@H](c3ccccc3)[C@H](c3ccccc3)OC(=O)[C@H]1[C@@H]2C(=O)N1CCCCCCC1 into one of the categories.
bucket C

Category of O=C1OCCC/C=C\[C@H]2OC34C=CCN(CCN5CCOCC5)C(=O)[C@H]3N(CCCCCCO)C(=O)[C@@H]4C12 (stereo partly drawn) , please.
bucket A

Class (by measured composite z-score) for COCCOC(=O)N1C(=O)[C@@]2(c3cc(C#CC4=CCCCC4)ccc31)[C@H](c1ccccc1OCCO)N1[C@H](c3ccccc3)[C@H](c3ccccc3)OC(=O)[C@H]1[C@@H]2C(=O)N1CCCCCCC1
bucket C

For the record COC(=O)[C@@]1(Cc2ccc(F)cc2)[C@H]2c3cc(C(=O)N4CCCC4)n(CCN4CNCC4=O)c3C[C@H]2CN1C(=O)c1ccccc1 , report the class its composite z-score corresponds to.
bucket A

====

experiment: binders of probe aHhip on microarray, primary screen, stem cell growth factor project, biochemical, small-molecule microarray, fluorescence 635/667 (AID 1087);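 further: score merges spot fluorescence at 667nm with spot signal to noise ratio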
test_context: higher = more signal
Provide the reported composite z-score of each item.
Could you keep your reply to the number by itself?

Write down composite z-score measured for item COC(=O)c1ccc([C@H](NC(=O)c2ccco2)[C@]2(C)C[C@H]2C2CCCCC2)cc1
2.5

In one line, give reported composite z-score of the entry CC=CC(O)C1C=CC2C(=O)N(c3ccccc3)C(=O)C2N1Nc1ccccc1F (centres undefined) .
0.0001

Respond only with composite z-score recorded for COCCCNC(=O)[C@]1(CCS(=O)(=O)c2ccccc2)N=C(c2ccc(OCCCO)cc2)O[C@@H]1c1ccccc1CN=[N+]=[N-]
-0.0518

For the compound CC(=O)NCCCC[C@@H]1NC(=O)[C@H]2C[C@@H](C(=O)NCCCC[N+](C)(C)C)[C@@H](c3cccc(OCCO)c3)N2C1=O , give its measured composite z-score value.
0.24

For the compound CO[C@]12C=C(Br)[C@@H](C[C@@H]1c1cccc(C)c1)[C@@]1(CO1)C2=O , give its measured composite z-score value.
-0.0708

Supply recorded composite z-score for CN1C(=O)C2C=CC(C(O)c3ccccn3)N(N(c3ccccc3)c3ccccc3)C2C1=O (centres undefined) here.
0.245

State, in one line, measured composite z-score of C=C(/C(=C/C[C@@H](OC(C)=O)c1cccc(OCCO)c1)c1cc(C(=O)OC)ccc1OC)C(C)C
0.0373

Give recorded composite z-score. CN1C(=O)C2C=CC(C(O)COCc3ccccc3)N(N(c3ccccc3)c3ccccc3)C2C1=O (centres undefined)
-0.0563

Look up and report measured composite z-score for this entry: CC(C)[Si](C#CCCCC#N)(O[C@H](c1ccccc1)c1cn([C@H](CO)Cc2ccccc2)nn1)C(C)C
0.0373

Provide composite z-score value for the following compound: CN(C)C(=O)C1N=C(c2ccc(OCCCO)cc2)N(c2ccccc2)O1 (centres undefined)
0.107

Please look at this compound and report its composite z-score: COc1cc2c(cc1OC)CN(C(=O)[C@@H]1[C@H]3C(=O)O[C@H](c4ccccc4)[C@H](c4ccccc4)N3[C@H](c3ccc(OCCO)cc3)[C@@]13C(=O)Nc1ccc(C#CC4(O)CCCCCC4)cc13)CC2
-0.6

Note down composite z-score recorded for C=C[C@@H](OC)[C@H](OC(=O)Nc1ccc(SC)cc1)c1ccc(O)c(F)c1
-0.069

Return reported composite z-score. Input compound: O=C1O[C@@H](c2ccccc2)[C@@H](c2ccccc2)N2[C@@H](c3ccccc3OCCO)[C@]3(C(=O)Nc4ccc(C#CCCO)cc43)[C@@H](C(=O)N3CCCCCCC3)[C@H]12
2.64

Give composite z-score for the following compound: CC[C@H]1C2=C3C(CC[C@H]4C(OCc5ccc(F)cc5C(F)(F)F)OC[C@](C)([C@@H]34)N(C(=O)OC(C)(C)C)C2)C(COC)C1COC (some centres undefined)
-0.329

Input [N-]=[N+]=NCc1ccccc1C[C@@]1(C(=O)N2CCCCC2)N=C(c2ccc(OCCCO)cc2)O[C@@H]1c1ccccc1 , output reported composite z-score.
-0.0457

Give composite z-score for CCOc1cc(C(O)C2C=CC3C(=O)N(c4ccccc4)C(=O)C3N2Nc2ccc(C#N)cc2)ccc1O (centres undefined)
0.0139

State its composite z-score: COc1ccc([Si](C)(C)[C@@H]2[C@@H](CC(=O)N3Cc4ccccc4C[C@H]3CO)O[C@]3(C(=O)N(Cc4cccc(N5C(=O)c6cccc7cccc5c67)c4)c4ccccc43)[C@H]2C)cc1
0.0505

Tell me measured composite z-score for CC(=O)c1ccc(C(O)C2C=CC3C(=O)N(c4ccccc4)C(=O)C3N2Nc2ccc(C#N)cc2)cc1 (centres undefined) please.
-0.0645

Give a short answer stating reported composite z-score for O[C@@H](Cc1ccccc1)[C@@H](/C=C/C1CC1)N(CC#Cc1ccccc1)Cc1cccc(Cl)c1 .
-0.227
